- Study system: human TLR8 (Homo sapiens, UniProt Q9NR97)
- Sequence (Q9NR97 27-1041): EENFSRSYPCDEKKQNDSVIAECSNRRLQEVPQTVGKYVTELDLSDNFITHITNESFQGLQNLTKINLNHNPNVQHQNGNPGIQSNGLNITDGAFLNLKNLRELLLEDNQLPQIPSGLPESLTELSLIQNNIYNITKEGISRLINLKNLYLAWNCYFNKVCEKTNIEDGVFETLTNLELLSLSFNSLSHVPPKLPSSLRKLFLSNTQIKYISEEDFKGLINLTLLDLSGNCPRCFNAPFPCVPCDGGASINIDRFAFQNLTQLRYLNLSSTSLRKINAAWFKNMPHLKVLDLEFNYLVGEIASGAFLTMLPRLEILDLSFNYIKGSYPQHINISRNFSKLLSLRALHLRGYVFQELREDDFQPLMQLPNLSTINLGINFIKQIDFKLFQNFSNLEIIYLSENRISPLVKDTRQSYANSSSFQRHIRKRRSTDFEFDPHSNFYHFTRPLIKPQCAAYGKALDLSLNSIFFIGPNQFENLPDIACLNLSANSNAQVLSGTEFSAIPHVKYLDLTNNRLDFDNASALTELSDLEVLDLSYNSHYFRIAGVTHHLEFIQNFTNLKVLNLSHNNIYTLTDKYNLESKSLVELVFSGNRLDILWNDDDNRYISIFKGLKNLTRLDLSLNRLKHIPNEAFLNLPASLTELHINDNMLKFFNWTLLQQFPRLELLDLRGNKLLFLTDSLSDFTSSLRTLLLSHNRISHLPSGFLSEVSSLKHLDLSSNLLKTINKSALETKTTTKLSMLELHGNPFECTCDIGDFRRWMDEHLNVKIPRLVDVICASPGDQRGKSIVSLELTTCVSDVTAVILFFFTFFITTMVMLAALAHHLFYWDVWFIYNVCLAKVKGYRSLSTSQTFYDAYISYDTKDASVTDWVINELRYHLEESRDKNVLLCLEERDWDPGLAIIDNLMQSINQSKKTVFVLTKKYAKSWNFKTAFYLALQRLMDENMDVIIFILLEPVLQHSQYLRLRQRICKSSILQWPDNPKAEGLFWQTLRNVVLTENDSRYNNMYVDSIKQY
- Experiment: HEK293 NFKB reporter assay, human TLR8
- Measurement context: HEK293 NFKB reporter cells expressing human TLR8; read-out: HEK293 hTLR8 EC50
- Protocol: Each compound was synthesized, purified, and characterized by mass spectrometry and shown to have the mass indicated. Additional experimental procedures are found in the Examples. Activity against HEK293 NFKB reporter cells expressing human TLR7 or human TLR8 was measured according to Example 202. HEK293 reporter cells expressing human TLR7 or human TLR8 were purchased from Invivogen and vendor protocols were followed for cellular propagation and experimentation. […]
pEC50: −log10 of the molar value.
Output t for pEC50 not less than 6; output f otherwise.

Task: Hi, just wondering whether [2H]C1=C(C(=O)N(CCC)Cc2ccc(CNC(=O)OC(C)(C)C)nc2)CC(N)=Nc2ccsc21 [TAZ-50] shows pEC50 of 6 or higher.
Output: f

Task: Hi, just wondering whether CCCN(CCCNC(=O)OC1CCC1)C(=O)C1=Cc2sc(C#CC3CCNCC3)cc2N=C(N)C1 [TAZ-164] shows pEC50 of 6 or higher.
Output: f

Task: Hi, just wondering whether CCCN(CCCNC(=O)OC1CCC1)C(=O)C1=Cc2sc(CCC3CCNCC3)cc2N=C(N)C1 [TAZ-166] shows pEC50 of 6 or higher.
Output: f

Task: Hi, just wondering whether CCCN(OCC)C(=O)C1=Cc2sc(CN3CC[C@H]4NC[C@H]4C3)cc2N=C(N)C1 [TAZ-227] shows pEC50 of 6 or higher.
Output: f

Task: Hi, just wondering whether CCCN(C[C@H]1CC[C@H](CN)CC1)C(=O)C1=Cc2sccc2N=C(N)C1 [TAZ-97] shows pEC50 of 6 or higher.
Output: f

Task: Hi, just wondering whether CCCN(OCC)C(=O)C1=Cc2sc(CN3CCC(N)C3)cc2N=C(N)C1 (stereo not drawn) [TAZ-234] shows pEC50 of 6 or higher.
Output: t

Task: Hi, just wondering whether CCCN(OCC)C(=O)C1=Cc2sccc2N=C(N)C1 [TAZ-53] shows pEC50 of 6 or higher.
Output: t

Task: Hi, just wondering whether CCCN(C[C@H]1C[C@@H](CN)C1)C(=O)C1=Cc2sccc2N=C(N)C1 [TAZ-49] shows pEC50 of 6 or higher.
Output: f

Task: Hi, just wondering whether CCCN(OCC)C(=O)C1=Cc2sc(CN3CCC(N)CC3)cc2N=C(N)C1 [TAZ-243] shows pEC50 of 6 or higher.
Output: t

Task: Hi, just wondering whether CCCN(CCC)C(=O)C1=Cc2sc(C#CCCN)cc2N=C(N)C1 [TAZ-35] shows pEC50 of 6 or higher.
Output: f

Task: Hi, just wondering whether CCCN(OCC)C(=O)C1=Cc2sc(CN3C[C@@H]4CN(C(=O)OC(C)(C)C)C[C@@H]4C3)cc2N=C(N)C1 [TAZ-242] shows pEC50 of 6 or higher.
Output: f

Task: Hi, just wondering whether CCCN(Cc1ccc(CN)nc1C(F)(F)F)C(=O)C1=Cc2sccc2N=C(N)C1 [TAZ-70] shows pEC50 of 6 or higher.
Output: t

Task: Hi, just wondering whether CCCN(OCC)C(=O)C1=Cc2sc(CN3CCC(C(=O)OC)CC3)cc2N=C(N)C1 [TAZ-222] shows pEC50 of 6 or higher.
Output: f

Task: Hi, just wondering whether CCCN(Cc1ccc(CNC(=O)OC(C)(C)C)cn1)C(=O)C1=Cc2sccc2N=C(N)C1 [TAZ-42] shows pEC50 of 6 or higher.
Output: f

Task: Hi, just wondering whether CCCN(Cc1ccc(CO)cc1)C(=O)C1=Cc2sccc2N=C(N)C1 [TAZ-96] shows pEC50 of 6 or higher.
Output: t

###

- Study system: human TLR8 (Homo sapiens, UniProt Q9NR97)
- Experiment: HEK293 NFKB reporter assay, human TLR8
- Measurement context: HEK293 NFKB reporter cells expressing human TLR8; read-out: HEK293 hTLR8 EC50
Give measured EC50 for each item. Keep answers brief.

Task: // lookup EC50 for CCCN(OCC)C(=O)C1=Cc2sc(CCC3CCNCC3)cc2N=C(N)C1 [TAZ-176]
Output: 249 nM

Task: // lookup EC50 for CCCN(Cc1ccc(CN)c(C(F)(F)F)c1)C(=O)C1=Cc2sccc2N=C(N)C1
Output: 35 nM

Task: // lookup EC50 for CCCN(OC(C)C)C(=O)C1=Cc2sc(CC3CNC3)cc2N=C(N)C1 [TAZ-253]
Output: 192 nM

Task: // lookup EC50 for CCCN(OCC(F)(F)F)C(=O)C1=Cc2sccc2N=C(N)C1 [TAZ-103]
Output: 1380 nM

Task: // lookup EC50 for CCCN(CCC)C(=O)C1=Cc2sc(CN3CCNCC3)cc2N=C(N)C1 [TAZ-44]
Output: 593 nM

Task: // lookup EC50 for CCCN(Cc1ccc(CNC(=O)OC(C)(C)C)cc1C(F)(F)F)C(=O)C1=Cc2sccc2N=C(N)C1 [TAZ-51]
Output: 5630 nM

Task: // lookup EC50 for CCCN(CCC)C(=O)C1=Cc2sc(C(=O)NCCCNC(=O)OC(C)(C)C)cc2N=C(N)C1 [TAZ-31]
Output: > 9000 nM

Task: // lookup EC50 for CCCN(CCC)C(=O)C1=Cc2sc(CCCCCNC(=O)CCOC)cc2N=C(N)C1 [TAZ-108]
Output: 3470 nM

Task: // lookup EC50 for CCCN(C[C@H]1CC[C@H](CNC(=O)OC(C)(C)C)CC1)C(=O)C1=Cc2sccc2N=C(N)C1 [TAZ-98]
Output: 631 nM

###

Give measured EC50 for each item. Keep answers brief.
- Study system: human TLR8 (Homo sapiens, UniProt Q9NR97)
- Experiment: HEK293 NFKB reporter assay, human TLR8
- Measurement context: HEK293 NFKB reporter cells expressing human TLR8; read-out: HEK293 hTLR8 EC50
Entry rule: numbers only, all in µM.

Task: // lookup EC50 for CCCN(Cc1ccc(CN(C)C)cc1C(F)(F)F)C(=O)C1=Cc2sc(CCCCCN)cc2N=C(N)C1 [TAZ-144]
Output: 2.86

Task: // lookup EC50 for CCCN(Cc1ccc(CCN)cc1)C(=O)C1=Cc2sccc2N=C(N)C1 [TAZ-58]
Output: 1.3

Task: // lookup EC50 for CCCN(OCC)C(=O)C1=Cc2sc(CC3CNC3)cc2N=C(N)C1 [TAZ-183]
Output: 0.485

Task: // lookup EC50 for CCCN(CCC)C(=O)C1=Cc2sc(CC(=O)OC)cc2N=C(N)C1 [TAZ-134]
Output: 3.42

Task: // lookup EC50 for CCCN(OCC)C(=O)C1=Cc2sc(CN3Cc4ccc(NC(=O)CCNC(=O)OC(C)(C)C)cc4C3)cc2N=C(N)C1 [TAZ-202]
Output: 1.37

Task: // lookup EC50 for CCCN(OCC)C(=O)C1=Cc2sc(CC3CN(C(C)=O)C3)cc2N=C(N)C1 [TAZ-252]
Output: 0.868

Task: // lookup EC50 for CCCN(C(=O)C1=Cc2sccc2N=C(N)C1)C(C)c1ccc(CN)cc1 (stereo not drawn) [TAZ-88]
Output: 2.27

Task: // lookup EC50 for CCCN(OCC)C(=O)C1=Cc2sc(CCCN3CCNCC3)cc2N=C(N)C1 [TAZ-244]
Output: 0.146

Task: // lookup EC50 for CCCN(C[C@H]1CC[C@@H](CN)CC1)C(=O)C1=Cc2sccc2N=C(N)C1 [TAZ-118]
Output: 4.44

Task: // lookup EC50 for CCCN(Cc1ccc(CN(C)C)c(C(F)(F)F)n1)C(=O)C1=Cc2sc(CCCCCN)cc2N=C(N)C1 [TAZ-145]
Output: 4.01

Task: // lookup EC50 for CCCN(CCc1ccc(OC)cc1)C(=O)C1=Cc2sccc2N=C(N)C1 [TAZ-83]
Output: 3.37

Task: // lookup EC50 for CCCN(CCC)C(=O)C1=Cc2sc(CNC(=O)CNC(=O)OC(C)(C)C)cc2N=C(N)C1 [TAZ-93]
Output: 3.13

Task: // lookup EC50 for CCCNN(CC)C(=O)C1=Cc2sccc2N=C(N)C1 [TAZ-86]
Output: 4.92

###

- Study system: human TLR7 (Homo sapiens)
- Construct: host or cells: HEK293 reporter cells
- Sequence (Q9NYK1 27-1049): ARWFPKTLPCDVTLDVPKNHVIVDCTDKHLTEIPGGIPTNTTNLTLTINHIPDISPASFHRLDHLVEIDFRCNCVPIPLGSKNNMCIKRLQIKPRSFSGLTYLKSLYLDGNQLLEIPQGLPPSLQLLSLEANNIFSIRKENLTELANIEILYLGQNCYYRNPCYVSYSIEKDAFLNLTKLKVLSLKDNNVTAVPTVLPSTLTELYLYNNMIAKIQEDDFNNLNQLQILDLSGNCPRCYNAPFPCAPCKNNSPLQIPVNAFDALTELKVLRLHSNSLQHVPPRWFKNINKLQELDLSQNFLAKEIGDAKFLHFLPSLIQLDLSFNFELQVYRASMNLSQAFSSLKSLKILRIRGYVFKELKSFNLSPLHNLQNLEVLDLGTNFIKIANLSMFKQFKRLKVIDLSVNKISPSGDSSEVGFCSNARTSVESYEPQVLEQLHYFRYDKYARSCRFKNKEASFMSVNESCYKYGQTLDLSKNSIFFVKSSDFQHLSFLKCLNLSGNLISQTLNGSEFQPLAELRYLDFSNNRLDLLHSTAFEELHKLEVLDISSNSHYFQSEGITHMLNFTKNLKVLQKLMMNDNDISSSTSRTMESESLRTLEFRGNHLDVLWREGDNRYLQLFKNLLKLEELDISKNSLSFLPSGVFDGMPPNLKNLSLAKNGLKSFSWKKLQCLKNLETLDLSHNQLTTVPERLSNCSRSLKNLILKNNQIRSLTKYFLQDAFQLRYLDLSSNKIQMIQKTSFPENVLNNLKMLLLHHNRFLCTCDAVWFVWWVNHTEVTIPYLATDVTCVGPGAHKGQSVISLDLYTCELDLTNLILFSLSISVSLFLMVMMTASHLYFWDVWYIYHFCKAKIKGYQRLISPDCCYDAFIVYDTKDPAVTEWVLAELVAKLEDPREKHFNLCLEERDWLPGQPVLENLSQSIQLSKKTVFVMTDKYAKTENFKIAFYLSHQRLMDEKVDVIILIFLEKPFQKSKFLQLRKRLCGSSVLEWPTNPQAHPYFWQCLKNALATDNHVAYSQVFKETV
- Experiment: HEK293 NFKB reporter assay, human TLR7
- Type: cell-based
- Measurement context: HEK293 NFKB reporter cells expressing human TLR7; read-out: HEK293 hTLR7 EC50
- Protocol: Each compound was synthesized, purified, and characterized by mass spectrometry and shown to have the mass indicated. Additional experimental procedures are found in the Examples. Activity against HEK293 NFKB reporter cells expressing human TLR7 or human TLR8 was measured according to Example 202. HEK293 reporter cells expressing human TLR7 or human TLR8 were purchased from Invivogen and vendor protocols were followed for cellular propagation and experimentation. […]
Give measured EC50 for each item. Keep answers brief.
Entry rule: numbers only, all in µM.

Task: // lookup EC50 for CCCN(OCC)C(=O)C1=Cc2sc(CCCN3CCNCC3)cc2N=C(N)C1 [TAZ-244]
Output: 2.46

Task: // lookup EC50 for CCCN(CCCNC(=O)C(C)(C)C)C(=O)C1=Cc2sc(CCCCCNC(=O)OC(C)(C)C)cc2N=C(N)C1 [TAZ-141]
Output: 0.38

Task: // lookup EC50 for CCCN(OCC)C(=O)C1=Cc2sc(CCCCCN)cc2N=C(N)C1 [TAZ-76]
Output: 3.44

Task: // lookup EC50 for CCCN(CCc1ccc(OC)cc1)C(=O)C1=Cc2sc(CCCCCN)cc2N=C(N)C1 [TAZ-107]
Output: 3.58

Task: // lookup EC50 for CCCN(OCC)C(=O)C1=Cc2sc(CN3CC[C@H]4NC[C@H]4C3)cc2N=C(N)C1 [TAZ-227]
Output: 4.39

Origin of values: patent US11654199B2
